Molecular target: T1, human FGFR3b expressed with a C-terminal murine Fc tag (hFGFR3b.mFc) (human)
T1 construct: called dimeric; also called REGN3153; dimeric human FGFR3b
T1 chain: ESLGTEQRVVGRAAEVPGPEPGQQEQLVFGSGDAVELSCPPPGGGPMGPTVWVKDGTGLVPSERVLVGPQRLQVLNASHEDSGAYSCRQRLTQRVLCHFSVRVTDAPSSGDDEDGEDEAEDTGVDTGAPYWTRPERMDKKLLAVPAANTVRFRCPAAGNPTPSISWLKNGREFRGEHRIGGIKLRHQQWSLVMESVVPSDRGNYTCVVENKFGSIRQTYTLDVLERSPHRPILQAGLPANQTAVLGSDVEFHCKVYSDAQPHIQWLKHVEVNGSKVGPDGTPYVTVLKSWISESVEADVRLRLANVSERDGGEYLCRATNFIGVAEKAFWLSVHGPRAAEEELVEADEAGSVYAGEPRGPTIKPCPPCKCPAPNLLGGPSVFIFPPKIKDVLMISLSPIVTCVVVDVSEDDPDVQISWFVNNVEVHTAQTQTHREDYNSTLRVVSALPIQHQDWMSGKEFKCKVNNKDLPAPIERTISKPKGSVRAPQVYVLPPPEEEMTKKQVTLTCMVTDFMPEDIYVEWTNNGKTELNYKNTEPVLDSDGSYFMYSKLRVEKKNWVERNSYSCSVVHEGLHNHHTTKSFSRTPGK
Assay: SPR Biacore, mAb captured on anti-hFc, 25C
pKd: −log10 of the molar value.
pKd listing for selected binders.
quantity: pKd

* H4H30061P (antibody, human IgG4 S228P, kappa, V domains shown) VH: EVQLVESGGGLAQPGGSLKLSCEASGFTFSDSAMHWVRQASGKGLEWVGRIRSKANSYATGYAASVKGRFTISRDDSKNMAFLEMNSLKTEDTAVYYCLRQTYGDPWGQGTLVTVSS VL: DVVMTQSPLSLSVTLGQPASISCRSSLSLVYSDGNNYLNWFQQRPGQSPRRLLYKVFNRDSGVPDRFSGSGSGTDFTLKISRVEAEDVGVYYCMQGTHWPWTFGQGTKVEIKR | ≥ 10.36
* H4H30071P (antibody, human IgG4 S228P, kappa, V domains shown, HCVR 42, LCVR 50) VH: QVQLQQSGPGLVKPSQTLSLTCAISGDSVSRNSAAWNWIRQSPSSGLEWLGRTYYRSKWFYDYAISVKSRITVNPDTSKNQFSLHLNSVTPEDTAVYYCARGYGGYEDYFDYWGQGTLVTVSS VL: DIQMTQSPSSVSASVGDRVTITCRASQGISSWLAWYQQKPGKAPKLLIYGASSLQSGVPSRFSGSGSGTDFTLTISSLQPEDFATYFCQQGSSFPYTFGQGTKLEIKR | ≥ 10.51
* H4H30063P (antibody, human IgG4 S228P, kappa, V domains shown, HCVR 2, LCVR 10; also called REGN15684) VH: QVQLQESGPGLVKPSETLSLTCTVSGDSINSYFWSWIRQLPGKELEWIGHIYSSGSTRYNPSLQSRVTISIDTSKNQFSLKLSSVTAADTAVYYCARGASAVDYWGQGTLVTVSS VL: EIVLTQSPGTLSLSPGERATLSCRTSQSISSGYLAWYQQKPGQAPRLLIYGASRRATGIPDRFSGSGSGTDFTLTISRLEPEDFVVYYCQQYGSSPYTFGQGTKLEIKR | ≥ 10.65
* H4H30076P (antibody, human IgG4 S228P, kappa, V domains shown) VH: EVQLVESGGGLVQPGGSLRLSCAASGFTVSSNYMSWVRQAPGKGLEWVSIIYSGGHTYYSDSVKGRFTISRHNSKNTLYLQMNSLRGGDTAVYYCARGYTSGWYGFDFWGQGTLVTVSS VL: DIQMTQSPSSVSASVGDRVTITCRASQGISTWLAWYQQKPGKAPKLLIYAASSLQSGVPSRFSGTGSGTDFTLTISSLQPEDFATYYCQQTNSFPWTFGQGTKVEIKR | ≥ 10.61
* H4H30045P (antibody, human IgG4 S228P, kappa, V domains shown, HCVR 179, LCVR 187) VH: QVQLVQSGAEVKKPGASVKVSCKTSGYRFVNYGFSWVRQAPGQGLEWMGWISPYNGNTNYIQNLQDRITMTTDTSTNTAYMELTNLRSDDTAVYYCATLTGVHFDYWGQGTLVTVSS VL: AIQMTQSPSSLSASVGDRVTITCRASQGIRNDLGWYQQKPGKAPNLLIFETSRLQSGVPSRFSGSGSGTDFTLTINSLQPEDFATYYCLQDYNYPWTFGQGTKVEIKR | 9.24
